# experimental-system: Purified recombinant ADAMTS-7 (rat prodomain/human catalytic domain, SEQ ID No. 01 or 02) (Homo sapiens, UniProt Q9UKP4)
# Construct: rat ADAMTS-7 signal peptide + prodomain (rat 1-217, Q1EHB3) (N); 2xStrep tag (C); 6xHis tag (C); made in house; host or cells: Expi293 cells
# Sequence (Q9UKP4 237-537): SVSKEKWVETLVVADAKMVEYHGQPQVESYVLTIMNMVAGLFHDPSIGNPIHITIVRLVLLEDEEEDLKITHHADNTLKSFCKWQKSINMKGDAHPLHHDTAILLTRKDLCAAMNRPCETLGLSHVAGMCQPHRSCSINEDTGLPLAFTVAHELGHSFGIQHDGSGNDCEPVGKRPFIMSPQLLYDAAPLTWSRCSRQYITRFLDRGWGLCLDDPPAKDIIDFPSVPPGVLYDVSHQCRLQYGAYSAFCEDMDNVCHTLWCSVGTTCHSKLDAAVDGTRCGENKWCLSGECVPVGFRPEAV
# test-description: Assay for ADAMTS-7 enzymatic activity (FRET substrate cleavage)
# Format: biochemical
# stated-conditions: FRET substrate SEQ ID No. 11, 120 min at 32° C.; read-out: ADAMTS7-IC50
quantity-name: IC50
Just the number plus its unit, please.

compound	quantity-name	test-result
CCC(C)C1(CNC(=O)c2cnn(-c3ccc(F)cc3)n2)NC(=O)NC1=O (single isomer, unassigned) [Example 137]	IC50	37 nM
O=C1NC(=O)[C@](CNC(=O)c2cnn(-c3ccccn3)n2)(C2CC2)N1 [Example 47]	IC50	98 nM
O=C1NC(=O)[C@](CNC(=O)c2cnn(-c3ccc(OC(F)(F)F)cc3)n2)(C2CC2)N1	IC50	190 nM
O=C1NC(=O)C(CNC(=O)c2cnn(-c3cccc(F)c3)n2)(c2nccs2)N1 (racemic)	IC50	12 nM
CC1(CNC(=O)c2cnn(-c3ccc(F)cc3)n2)NC(=O)NC1=O (single isomer, unassigned; ent-2) [Example 153]	IC50	83 nM

Look up IC50 for the entries below, preserving their order.
1. O=C1NC(=O)C(CNC(=O)c2cnn(-c3ccc(Cl)c(F)c3)n2)(c2nccs2)N1 (racemic) [Example 109]
2. O=C1NC(=O)[C@](CNC(=O)c2cnn(-c3cc(F)ccc3F)n2)(C2CC2)N1

Reply:
1. 19 nM
2. 110 nM
